Tested on: MCF7
Assay: Growth inhibition of human MCF7 cells by MTT assay
Format: functional
Each entry below lists one item and its recorded GI50 value.

| compound | GI50 |
| --- | --- |
| CC1=C(/C=C/C(C)=C/C=C/C(C)=C\C(=O)Nc2ccccc2)C(C)(C)CCC1n1ccnc1 (stereo not drawn) | 1900 nM |
| CC1=C(/C=C/C(C)=C/C=C/C(C)=C\C(=O)NCCc2ccc(O)cc2)C(C)(C)CC=C1c1cccnc1 | 8750 nM |
| CC1=C(/C=C/C(C)=C/C=C/C(C)=C\C(=O)NCCc2ccc(O)cc2)C(C)(C)CCC1n1ccnc1 (stereo not drawn) | 1900 nM |
| CC1=C(/C=C/C(C)=C/C=C/C(C)=C\C(=O)Nc2ccc(F)cc2)C(C)(C)CCC1n1ccnc1 (stereo not drawn) | 400 nM |
| CC1=C(/C=C/C(C)=C/C=C/C(C)=C\C(=O)NCCc2ccc(O)cc2)C(C)(C)CC=C1c1cncnc1 | 2960 nM |

Memo: CC1=C(/C=C/C(C)=C/C=C/C(C)=C\C(=O)NCc2cccc(F)c2)C(C)(C)CCC1n1ccnc1 (stereo not drawn) , reported GI50: 1810 nM

Memo: CC1=C(/C=C/C(C)=C/C=C/C(C)=C\C(=O)NCc2ccc(O)cc2)C(C)(C)CC=C1c1cncnc1 , reported GI50: 4960 nM

Memo: CC1=C(/C=C/C(C)=C/C=C/C(C)=C\C(=O)Nc2ccccc2)C(C)(C)CC=C1c1cccnc1 , reported GI50: 8320 nM
